target: HLA-A*11:01; assay: IEDB peptide-MHC binding, purified MHC/direct/fluorescence; filed as Kd, often an IC50 or EC50 that approximates it; bounds were set here for any values at or beyond the usual limits of such assays; settings: source organism: Francisella tularensis subsp. holarctica LVS
propertyLabel: Kd

// for each sequence below, give its Kd
1. FQVNRFTGY
2. IYTVIYYIF

["≥ 20 µM", "≥ 20 µM"]

###

molecular target: HLA-A*02:03; assay: IEDB peptide-MHC binding, purified MHC/direct/fluorescence; filed as Kd, often an IC50 or EC50 that approximates it; bounds were set here for any values at or beyond the usual limits of such assays; conditions: source organism: Rio Mamore hantavirus
propertyLabel: Kd

For the record "LQPSDTLLF" , what value of Kd is listed for HLA-A*02:03?
≥ 20 µM

###

molecular target: HLA-A*26:01; assay: IEDB peptide-MHC binding, purified MHC/direct/fluorescence; filed as Kd, often an IC50 or EC50 that approximates it; bounds were set here for any values at or beyond the usual limits of such assays; details: source organism: Yersinia pestis Nepal516
propertyLabel: Kd

- inputSequence: "AFASLQDML"
  testedOn: "HLA-A*26:01"
  propertyLabel: "Kd"
  experimentalValue: "≥ 20 µM"

# evaluate next
For the record "YLHRDIFDI" , what value of Kd is listed for HLA-A*26:01?
≥ 20 µM

###

For each entry below, report its pKd value.
molecular target: HLA-A*31:01; experiment: IEDB peptide-MHC binding, purified MHC/competitive/radioactivity; filed as Kd, often an IC50 or EC50 that approximates it; bounds were set here for any values at or beyond the usual limits of such assays; settings: source organism: Mammarenavirus guanaritoense
Give bare numbers, as −log10 of the molar value.

- inputSequence: "KTAVNMLTH"
  testedOn: "HLA-A*31:01"
  pKd: 7.34

Reported pKd for "SIVLHIQLEH" : what is it?
4.93

###

target: HLA-A*29:02; test: IEDB peptide-MHC binding, purified MHC/competitive/fluorescence; filed as Kd, often an IC50 or EC50 that approximates it; bounds were set here for any values at or beyond the usual limits of such assays; conditions: source organism: Bos taurus
propertyLabel: Kd

Reported Kd for "KLGEGFKSL" : what is it?
≥ 20 µM

###

target: HLA-B*18:01; assay: IEDB peptide-MHC binding, purified MHC/direct/fluorescence; filed as Kd, often an IC50 or EC50 that approximates it; bounds were set here for any values at or beyond the usual limits of such assays; conditions: source organism: West Nile virus
propertyLabel: Kd

For the record "GMSWITQGL" , what value of Kd is listed for HLA-B*18:01?
≥ 20 µM

###

For each entry below, report its pKd value.
target: HLA-A*30:01; test: IEDB peptide-MHC binding, purified MHC/competitive/radioactivity; filed as Kd, often an IC50 or EC50 that approximates it; bounds were set here for any values at or beyond the usual limits of such assays; settings: source organism: Vaccinia virus WR
Numbers only, as −log10 of the molar value.

Consider the reported pKd for these sequences:
- inputSequence: "KVFFGPIYY"
  testedOn: "HLA-A*30:01"
  pKd: 6.81
- inputSequence: "LSTTRFQSM"
  testedOn: "HLA-A*30:01"
  pKd: 5.97

// for each sequence below, give its pKd
1. KHKIFSPFK
2. KSKSRRLNL
3. KAFNHASVK
4. MTRLPILLL
5. RVLFSIFYK
6. RTRAINKYS

9.05
7.90
7.46
9.19
6.93
7.90

// for each sequence below, give its pKd
1. LTRYALHGK
2. HVFFSEYIV
3. KTSHAKVLV
4. ASKSLKPTK
5. FSNFSTSHI
6. ISWMMKLGI
7. KVKKKYAIG

1: 9.60; 2: 6.05; 3: 7.15; 4: 7.82; 5: 5.12; 6: 5.18; 7: 8.81

// for each sequence below, give its pKd
1. LMYILGTYG
2. KSHAIYWDK

1. 5.43
2. 7.98
